The reported numbers originate from FireProtDB (doi:10.1016/j.csbj.2015.03.010).

B1: Arabinogalactan endo-beta-1,4-galactanase, P48842 (parent)
chain: MFASLLLAALPLLTHAALTYRGADISSLLLLEDEGYSYKNLNGQTQALETILADAGINSIRQRVWVNPSDGSYDLDYNLELAKRVKAAGMSLYLDLHLSDTWADPSDQTTPSGWSTTDLGTLKWQLYNYTLEVCNTFAENDIDIEIISIGNEIRAGLLWPLGETSSYSNIGALLHSGAWGVKDSNLATTPKIMIHLDDGWSWDQQNYFYETVLATGELLSTDFDYFGVSYYPFYSASATLASLKTSLANLQSTYDKPVVVVETNWPVSCPNPAYAFPSDLSSIPFSVAGQQEFLEKLAAVVEATTDGLGVYYWEPAWIGNAGLGSSCADNLMVDYTTDEVYESIETLGEL

Variants of: B1
test.parameters: Aspergillus aculeatus; pH 4.5; Thermal; DSC; sodium acetate buffer 50 mM; transition: 2; reversible: no; structure 1FHL; whole UniProt chain shown
observable: Tm (°C)
Field: numeric (°C). Do not append units.

Recorded Tm for `G322A` , please?
62

Recorded Tm for S201D Q204T , please?
61

Recorded Tm for G120D A172R , please?
60.7

Recorded Tm for `D198N` , please?
61.4

Recorded Tm for `Y311F` , please?
61.2

Recorded Tm for `D74N` , please?
61.5
